# key: entry, value: melting point

[
  {
    "ITEM_SMILES": "Cc1ccc(-c2oc3cccc4[n+]3c2-c2ccccc2-4)cc1.F[B-](F)(F)F",
    "melting point": "222 to 223 °C"
  },
  {
    "ITEM_SMILES": "CCCCC(=O)c1ccc(-c2oc3cccc4[n+]3c2-c2ccccc2-4)cc1.F[B-](F)(F)F",
    "melting point": "202 to 204 °C"
  },
  {
    "ITEM_SMILES": "Cc1cccc2c1-c1cccc3oc(-c4ccccc4)c-2[n+]13.F[B-](F)(F)F",
    "melting point": "220 to 221 °C"
  },
  {
    "ITEM_SMILES": "Clc1ccc2c(c1)-c1c(-c3ccccc3)oc3cccc-2[n+]13.F[B-](F)(F)F",
    "melting point": "206 to 208 °C"
  },
  {
    "ITEM_SMILES": "Clc1ccc2c(c1)-c1cccc3oc(-c4ccccc4)c-2[n+]13.F[B-](F)(F)F",
    "melting point": "208 to 210 °C"
  },
  {
    "ITEM_SMILES": "F[B-](F)(F)F.c1ccc2c(c1)-c1cccc3oc(-c4cc5ccccc5c5ccccc45)c-2[n+]13",
    "melting point": "230 to 232 °C"
  }
]

Fill in melting point for record `CCCCOc1ccc(-c2oc3cccc4[n+]3c2-c2ccccc2-4)cc1.F[B-](F)(F)F`
183 to 185 °C

* * *

# TEST_NAME: Spectral (photophysical) properties of representative derivatives in DCM at room temperature
# Type: physicochemical
# SETUP_CONDITIONS: DCM, RM, 10−5M
METRIC: ΔStokes (Stokes shift=λem−λabs) (nm)
Give just the numeric value; nm need not be written.

[
  {
    "ITEM_SMILES": "COc1ccc(-c2oc3cccc4[n+]3c2-c2ccccc2-4)cc1.F[B-](F)(F)F",
    "READOUT_VALUE": "053"
  }
]

Fill in ΔStokes (Stokes shift=λem−λabs) for record `COc1cccc(-c2oc3cccc4[n+]3c2-c2ccccc2-4)c1.F[B-](F)(F)F`
079

Fill in ΔStokes (Stokes shift=λem−λabs) for record `F[B-](F)(F)F.Fc1ccc(-c2oc3cccc4[n+]3c2-c2ccccc2-4)cc1`
042

Fill in ΔStokes (Stokes shift=λem−λabs) for record `F[B-](F)(F)F.c1ccc(-c2oc3cccc4[n+]3c2-c2ccccc2-4)cc1`
036

Fill in ΔStokes (Stokes shift=λem−λabs) for record `F[B-](F)(F)F.c1ccc2c(c1)-c1cccc3oc(-c4cc5ccccc5c5ccccc45)c-2[n+]13`
076

Fill in ΔStokes (Stokes shift=λem−λabs) for record `Clc1ccc(-c2oc3cccc4[n+]3c2-c2ccccc2-4)cc1.F[B-](F)(F)F`
040

Fill in ΔStokes (Stokes shift=λem−λabs) for record `F[B-](F)(F)F.c1ccc2c(c1)-c1cccc3oc(-c4ccc5ccccc5c4)c-2[n+]13`
071

Fill in ΔStokes (Stokes shift=λem−λabs) for record `CN(C)c1ccc(-c2oc3cccc4[n+]3c2-c2ccccc2-4)cc1.F[B-](F)(F)F`
049

* * *

# TEST_NAME: Spectral (photophysical) properties of representative derivatives in DCM at room temperature
# Assay type: physicochemical
# SETUP_CONDITIONS: DCM, RM, 10−5M
METRIC: λabs (maximum absorption band more than 300 nm)
Give just the numeric value; nm need not be written.

Below, 5 molecules whose answers are already recorded.
[
  {
    "MOLECULE": "CN(C)c1ccc(-c2oc3cccc4[n+]3c2-c2ccccc2-4)cc1.F[B-](F)(F)F [3n]",
    "READOUT_VALUE": 506
  },
  {
    "MOLECULE": "F[B-](F)(F)F.c1ccc(-c2oc3cccc4[n+]3c2-c2ccccc2-4)cc1 [3a]",
    "READOUT_VALUE": 368
  },
  {
    "MOLECULE": "F[B-](F)(F)F.c1ccc2c(c1)-c1cccc3oc(-c4cc5ccccc5c5ccccc45)c-2[n+]13 [3d]",
    "READOUT_VALUE": 411
  },
  {
    "MOLECULE": "COc1cccc(-c2oc3cccc4[n+]3c2-c2ccccc2-4)c1.F[B-](F)(F)F [3q]",
    "READOUT_VALUE": 376
  },
  {
    "MOLECULE": "COc1ccc(-c2oc3cccc4[n+]3c2-c2ccccc2-4)cc1.F[B-](F)(F)F [3j]",
    "READOUT_VALUE": 405
  }
]

Fill in λabs (maximum absorption band more than 300 nm) for record F[B-](F)(F)F.c1ccc2c(c1)-c1cccc3oc(-c4ccc5ccccc5c4)c-2[n+]13 [3c]
410

Fill in λabs (maximum absorption band more than 300 nm) for record F[B-](F)(F)F.Fc1ccc(-c2oc3cccc4[n+]3c2-c2ccccc2-4)cc1 [3l]
372

Fill in λabs (maximum absorption band more than 300 nm) for record Clc1ccc(-c2oc3cccc4[n+]3c2-c2ccccc2-4)cc1.F[B-](F)(F)F [3m]
370

* * *

METRIC: melting point

[
  {
    "COMPOUND": "F[B-](F)(F)F.c1ccc2c(c1)-c1cccc3oc(-c4cccc5ccccc45)c-2[n+]13",
    "melting point": "198 to 200 °C"
  },
  {
    "COMPOUND": "Cc1ccc2c(c1)-c1cccc3oc(-c4ccccc4)c-2[n+]13.F[B-](F)(F)F",
    "melting point": "224 to 226 °C"
  },
  {
    "COMPOUND": "CN(C)c1ccc(-c2oc3cccc4[n+]3c2-c2ccccc2-4)cc1.F[B-](F)(F)F [3n]",
    "melting point": "242 to 244 °C"
  },
  {
    "COMPOUND": "F[B-](F)(F)F.c1ccc(-c2oc3cccc4[n+]3c2-c2ccccc2-4)cc1 [3a]",
    "melting point": "192 to 193 °C"
  },
  {
    "COMPOUND": "COc1ccc(-c2oc3cccc4[n+]3c2-c2ccccc2-4)cc1.F[B-](F)(F)F [3j]",
    "melting point": "190 to 192 °C"
  }
]

Fill in melting point for record `CC(C)c1ccc(-c2oc3cccc4[n+]3c2-c2ccccc2-4)cc1.F[B-](F)(F)F`
214 to 215 °C

Fill in melting point for record COc1ccc(Cl)c(-c2cc3ccccc3c3cccc(=O)n23)c1 [3y″]
186 to 187 °C

Fill in melting point for record COc1cccc(-c2oc3cccc4[n+]3c2-c2ccccc2-4)c1.F[B-](F)(F)F [3q]
206 to 208 °C

Fill in melting point for record `Clc1cccc(-c2oc3cccc4[n+]3c2-c2ccccc2-4)c1.F[B-](F)(F)F`
204 to 206 °C

* * *

# TEST_NAME: Spectral (photophysical) properties of representative derivatives in DCM at room temperature
# Assay type: physicochemical
# SETUP_CONDITIONS: DCM, RM, 10−5M
# key: entry, value: λem (excited at the longest maximum absorption band)
Give just the numeric value; nm need not be written.

[
  {
    "ITEM_SMILES": "CN(C)c1ccc(-c2oc3cccc4[n+]3c2-c2ccccc2-4)cc1.F[B-](F)(F)F",
    "READOUT_VALUE": 555
  },
  {
    "ITEM_SMILES": "Clc1ccc(-c2oc3cccc4[n+]3c2-c2ccccc2-4)cc1.F[B-](F)(F)F",
    "READOUT_VALUE": 410
  },
  {
    "ITEM_SMILES": "F[B-](F)(F)F.c1ccc(-c2oc3cccc4[n+]3c2-c2ccccc2-4)cc1",
    "READOUT_VALUE": 404
  },
  {
    "ITEM_SMILES": "F[B-](F)(F)F.c1ccc2c(c1)-c1cccc3oc(-c4cc5ccccc5c5ccccc45)c-2[n+]13",
    "READOUT_VALUE": 487
  },
  {
    "ITEM_SMILES": "COc1ccc(-c2oc3cccc4[n+]3c2-c2ccccc2-4)cc1.F[B-](F)(F)F",
    "READOUT_VALUE": 458
  }
]

Fill in λem (excited at the longest maximum absorption band) for record `F[B-](F)(F)F.c1ccc2c(c1)-c1cccc3oc(-c4ccc5ccccc5c4)c-2[n+]13`
481

Fill in λem (excited at the longest maximum absorption band) for record `COc1cccc(-c2oc3cccc4[n+]3c2-c2ccccc2-4)c1.F[B-](F)(F)F`
455

Fill in λem (excited at the longest maximum absorption band) for record `F[B-](F)(F)F.Fc1ccc(-c2oc3cccc4[n+]3c2-c2ccccc2-4)cc1`
414

* * *

METRIC: melting point

[
  {
    "COMPOUND": "F[B-](F)(F)F.Fc1ccc2c(c1)-c1cccc3oc(-c4ccccc4)c-2[n+]13",
    "melting point": "255 to 256 °C"
  }
]

Now consider a different compound.
Fill in melting point for record `COc1ccccc1-c1oc2cccc3[n+]2c1-c1ccccc1-3.F[B-](F)(F)F`
228 to 229 °C
